Test system: Mycolicibacterium smegmatis
Test: Antibacterial activity against Mycobacterium smegmatis harboring 23S rRNA C2571G mutant after 24 generation times
Type: functional
Endpoint name: MIC (µg/mL)
Numbers only; they are read as µg/mL.

Worked examples, 3 compounds total:
# Smiles data, Measurement units, MIC
rows = [
    ("CC(=O)NC[C@H]1CN(c2ccc(N3CCOCC3)c(F)c2)C(=O)O1", "µg/mL", 4),
    ("CCC[C@@H]1C[C@@H](C(=O)N[C@@H]([C@H]2O[C@H](SC)[C@H](O)[C@@H](O)[C@H]2O)[C@H](C)Cl)N(C)C1", "µg/mL", 16),
    ("C=C[C@]1(C)C[C@@H](OC(=O)CSC(C)(C)CNC(=O)[C@H](N)C(C)C)[C@]2(C)[C@H](C)CC[C@]3(CCC(=O)[C@H]32)[C@@H](C)[C@@H]1O", "µg/mL", 32),
]

Continue with the compound presented below.
Notebook: O=C(N[C@H](CO)[C@H](O)c1ccc([N+](=O)[O-])cc1)C(Cl)Cl , MIC read as 32

---

Tested on: Mycolicibacterium smegmatis
Test: Antibacterial activity against Mycobacterium smegmatis harboring 23S rRNA C2055A mutant after 24 generation times
Assay type: functional
Endpoint name: MIC (µg/mL)
Numbers only; they are read as µg/mL.

// assay Mycolicibacterium smegmatis, entry CC(=O)NC[C@H]1CN(c2ccc(N3CCOCC3)c(F)c2)C(=O)O1 , MIC value = 0.5

---

System: Mycolicibacterium smegmatis
Test: Antibacterial activity against Mycobacterium smegmatis harboring 23S rRNA A2503G mutant after 24 generation times
Type: functional
Endpoint name: MIC (µg/mL)
Numbers only; they are read as µg/mL.

Worked examples, 3 molecules total:
# Smiles data, Target of assay, Measurement units, MIC
measured = [
    ("C=C[C@]1(C)C[C@@H](OC(=O)CSC(C)(C)CNC(=O)[C@H](N)C(C)C)[C@]2(C)[C@H](C)CC[C@]3(CCC(=O)[C@H]32)[C@@H](C)[C@@H]1O", "Mycolicibacterium smegmatis", "µg/mL", 32),
    ("CCC[C@@H]1C[C@@H](C(=O)N[C@@H]([C@H]2O[C@H](SC)[C@H](O)[C@@H](O)[C@H]2O)[C@H](C)Cl)N(C)C1", "Mycolicibacterium smegmatis", "µg/mL", 8),
    ("O=C(N[C@H](CO)[C@H](O)c1ccc([N+](=O)[O-])cc1)C(Cl)Cl", "Mycolicibacterium smegmatis", "µg/mL", 128),
]

Continue with the molecule presented below.
Notebook: CC(=O)NC[C@H]1CN(c2ccc(N3CCOCC3)c(F)c2)C(=O)O1 , MIC read as 8

---

Test system: Mycolicibacterium smegmatis
Test: Antibacterial activity against Mycobacterium smegmatis harboring 23S rRNA G2576U mutant after 24 generation times
Format: functional
Endpoint name: MIC (µg/mL)
Numbers only; they are read as µg/mL.

# Smiles data, Target of assay, MIC [µg/mL]
rows = [
    ("O=C(N[C@H](CO)[C@H](O)c1ccc([N+](=O)[O-])cc1)C(Cl)Cl", "Mycolicibacterium smegmatis", 256),
    ("CC(=O)NC[C@H]1CN(c2ccc(N3CCOCC3)c(F)c2)C(=O)O1", "Mycolicibacterium smegmatis", 64),
    ("C=C[C@]1(C)C[C@@H](OC(=O)CSC(C)(C)CNC(=O)[C@H](N)C(C)C)[C@]2(C)[C@H](C)CC[C@]3(CCC(=O)[C@H]32)[C@@H](C)[C@@H]1O", "Mycolicibacterium smegmatis", 32),
]

Notebook: CCC[C@@H]1C[C@@H](C(=O)N[C@@H]([C@H]2O[C@H](SC)[C@H](O)[C@@H](O)[C@H]2O)[C@H](C)Cl)N(C)C1 , MIC read as 64

---

Known MIC of a selection of compounds
Tested on: Mycolicibacterium smegmatis
Test: Antibacterial activity against Mycobacterium smegmatis harboring 23S rRNA A2058G mutant after 24 generation times
Type: functional
Numbers only; they are read as µg/mL.

# Smiles data, Endpoint name, Assay result
rows = [
    ("CC(=O)NC[C@H]1CN(c2ccc(N3CCOCC3)c(F)c2)C(=O)O1", "MIC", 2),
    ("C=C[C@]1(C)C[C@@H](OC(=O)CSC(C)(C)CNC(=O)[C@H](N)C(C)C)[C@]2(C)[C@H](C)CC[C@]3(CCC(=O)[C@H]32)[C@@H](C)[C@@H]1O", "MIC", 64),
]

Continue with the compound presented below.
Notebook: O=C(N[C@H](CO)[C@H](O)c1ccc([N+](=O)[O-])cc1)C(Cl)Cl , MIC read as 32

---

Tested on: Mycolicibacterium smegmatis
Test: Antibacterial activity against Mycobacterium smegmatis harboring 23S rRNA A2572U1 mutant after 24 generation times
Format: functional
Known MIC of a selection of compounds
Numbers only; they are read as µg/mL.

Worked examples, 3 compounds total:
# Compound, MIC [µg/mL]
measured = [
    ("O=C(N[C@H](CO)[C@H](O)c1ccc([N+](=O)[O-])cc1)C(Cl)Cl [CHLORAMPHENICOL]", 8),
    ("CCC[C@@H]1C[C@@H](C(=O)N[C@@H]([C@H]2O[C@H](SC)[C@H](O)[C@@H](O)[C@H]2O)[C@H](C)Cl)N(C)C1 [CLINDAMYCIN]", 16),
    ("CC(=O)NC[C@H]1CN(c2ccc(N3CCOCC3)c(F)c2)C(=O)O1 [LINEZOLID]", 4),
]

Continue with the compound presented below.
// assay Mycolicibacterium smegmatis, entry C=C[C@]1(C)C[C@@H](OC(=O)CSC(C)(C)CNC(=O)[C@H](N)C(C)C)[C@]2(C)[C@H](C)CC[C@]3(CCC(=O)[C@H]32)[C@@H](C)[C@@H]1O [VALNEMULIN] , MIC value = 128

---

Known MIC of a selection of compounds
Tested on: Mycolicibacterium smegmatis
Test: Antibacterial activity against Mycobacterium smegmatis harboring 23S rRNA C2055A mutant after 24 generation times
Format: functional
Numbers only; they are read as µg/mL.

Worked examples, 2 compounds total:
# Compound, MIC (µg/mL)
rows = [
    ("CCC[C@@H]1C[C@@H](C(=O)N[C@@H]([C@H]2O[C@H](SC)[C@H](O)[C@@H](O)[C@H]2O)[C@H](C)Cl)N(C)C1 [CLINDAMYCIN]", 32),
    ("O=C(N[C@H](CO)[C@H](O)c1ccc([N+](=O)[O-])cc1)C(Cl)Cl [CHLORAMPHENICOL]", 32),
]

Continue with the compound presented below.
Notebook: C=C[C@]1(C)C[C@@H](OC(=O)CSC(C)(C)CNC(=O)[C@H](N)C(C)C)[C@]2(C)[C@H](C)CC[C@]3(CCC(=O)[C@H]32)[C@@H](C)[C@@H]1O [VALNEMULIN] , MIC read as 64
